# target-of-assay: T1, SYNPO2L, Q9H987
# T1 sequence (Q9H987 1-98, limits assumed, looked up): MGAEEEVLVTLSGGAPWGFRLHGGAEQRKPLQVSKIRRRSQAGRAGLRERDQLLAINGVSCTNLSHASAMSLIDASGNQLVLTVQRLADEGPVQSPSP
# measurement-notes: holdup assay
# Set-up: key: below the threshold = too weak to quantify, mostly under pKd 3.1 to 4
# assay-setup: plain residues with an end cap or a label only (N-terminal biotin on a linker: ttds)
measured-metric: pKd

[
  {
    "binder": "PKTPPTDTSV [KIR3DL3, Q8N743]",
    "result": "below the threshold"
  },
  {
    "binder": "QSARYRDTEL [TJP2, Q9UDY2]",
    "result": "below the threshold"
  },
  {
    "binder": "SRPQRTQTQV [HPV67-E6, A4U7F2]",
    "result": "below the threshold"
  }
]
